Measured on: Estrogen receptor (Homo sapiens)
Sequence (P03372 whole entry): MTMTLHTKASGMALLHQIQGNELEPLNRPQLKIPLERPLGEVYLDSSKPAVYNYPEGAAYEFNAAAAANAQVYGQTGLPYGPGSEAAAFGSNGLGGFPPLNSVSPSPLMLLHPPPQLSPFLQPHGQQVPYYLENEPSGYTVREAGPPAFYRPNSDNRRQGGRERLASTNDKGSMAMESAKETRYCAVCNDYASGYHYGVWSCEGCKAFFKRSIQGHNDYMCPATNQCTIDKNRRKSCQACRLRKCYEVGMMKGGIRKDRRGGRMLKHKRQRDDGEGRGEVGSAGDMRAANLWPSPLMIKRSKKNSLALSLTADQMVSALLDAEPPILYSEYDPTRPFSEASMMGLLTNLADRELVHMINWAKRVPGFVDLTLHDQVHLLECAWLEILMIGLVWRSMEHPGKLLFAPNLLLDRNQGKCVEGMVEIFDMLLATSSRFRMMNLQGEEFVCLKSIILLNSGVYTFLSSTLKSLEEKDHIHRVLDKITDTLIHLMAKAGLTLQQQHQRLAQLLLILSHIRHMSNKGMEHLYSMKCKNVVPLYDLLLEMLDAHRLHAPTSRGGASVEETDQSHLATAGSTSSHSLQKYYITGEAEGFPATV
Assay type: functional, cell-based, HEK293
Description: Effect on transactivation of ALP gene expression in HEK293 cells transfected with hERalpha
pEC50: −log10 of the molar value.
Readout kind: pEC50

{"columns": ["Molecule", "Measured on", "Readout relation", "Test result"],
 "data": [
  ["C#CC12CC[C@H](O)CC1=CCC1C2CC[C@@]2(C)C1CC[C@@H]2O (single isomer, unassigned)", "Estrogen receptor (Homo sapiens)", "=", 6.80],
  ["C=C[C@]12CC[C@H](O)CC1=CCC1C2CC[C@@]2(C)C1CC[C@]2(C)O (some centres undefined)", "Estrogen receptor (Homo sapiens)", "=", 6.31],
  ["CC/C=C\\[C@]12CC[C@H](O)CC1=CCC1C2CC[C@@]2(C)C1CC[C@@H]2O (some centres undefined)", "Estrogen receptor (Homo sapiens)", "=", 6.14],
  ["C/C=C/[C@]12CC[C@H](O)CC1=CCC1C2CC[C@@]2(C)C1CC[C@@H]2O (some centres undefined)", "Estrogen receptor (Homo sapiens)", "=", 7.33],
  ["CO/C=C/[C@]12CC[C@H](O)CC1=CCC1C2CC[C@@]2(C)C1CC[C@@H]2O (some centres undefined)", "Estrogen receptor (Homo sapiens)", "=", 6.23],
  ["C/C=C\\[C@]12CC[C@H](O)CC1=CCC1C2CC[C@@]2(C)C1CC[C@@H]2O (some centres undefined)", "Estrogen receptor (Homo sapiens)", "=", 6.46],
  ["C[C@]12CCC3C(CC=C4C[C@@H](O)CC[C@@]43/C=C\\Cl)C1CC[C@@H]2O (some centres undefined)", "Estrogen receptor (Homo sapiens)", "<", 6.00],
  ["CC#C[C@]12CC[C@H](O)CC1=CCC1C2CC[C@@]2(C)C1CC[C@@H]2O (some centres undefined)", "Estrogen receptor (Homo sapiens)", "=", 6.00],
  ["C=CC[C@]12CC[C@H](O)CC1=CCC1C2CC[C@@]2(C)C1CC[C@@H]2O (some centres undefined)", "Estrogen receptor (Homo sapiens)", "=", 6.00],
  ["C#CC1(O)CCC2C3CC=C4C[C@@H](O)CC[C@]4(C=C)C3CC[C@@]21C (single isomer, unassigned)", "Estrogen receptor (Homo sapiens)", "=", 8.00],
  ["C=C[C@]12CCC(=O)C=C1CCC1C2CC[C@@]2(C)C1CC[C@@H]2O (some centres undefined)", "Estrogen receptor (Homo sapiens)", "<", 6.00],
  ["C[C@]12CCC3C(CC=C4C[C@@H](O)CC[C@@]43CO)C1CC[C@@H]2O (some centres undefined)", "Estrogen receptor (Homo sapiens)", "<", 6.00],
  ["C[C@]12CCC3C(CC=C4C[C@@H](O)CC[C@@]43/C=C/Cl)C1CC[C@@H]2O (some centres undefined)", "Estrogen receptor (Homo sapiens)", "=", 6.22],
  ["C[C@]12CCC3C(CC=C4C[C@@H](O)CC[C@@]43/C=C\\Br)C1CC[C@@H]2O (some centres undefined)", "Estrogen receptor (Homo sapiens)", "<", 6.00],
  ["C[C@]12CCC3C(CC=C4C[C@@H](O)CC[C@@]43/C=C/Br)C1CC[C@@H]2O (some centres undefined)", "Estrogen receptor (Homo sapiens)", "<", 6.00],
  ["C=C[C@]12CC[C@H](O)CC1=CCC1C2CC[C@@]2(C)C1CC[C@@H]2O (some centres undefined)", "Estrogen receptor (Homo sapiens)", "=", 6.01],
  ["CO/C=C\\[C@]12CC[C@H](O)CC1=CCC1C2CC[C@@]2(C)C1CC[C@@H]2O (some centres undefined)", "Estrogen receptor (Homo sapiens)", "=", 5.49],
  ["C[C@]12CCC3C(CC=C4C[C@@H](O)CC[C@@]43/C=C\\F)C1CC[C@@H]2O (some centres undefined)", "Estrogen receptor (Homo sapiens)", "=", 6.21],
  ["C[C@]12CCC3C(CC=C4C[C@@H](O)CC[C@@]43CC=O)C1CC[C@@H]2O (some centres undefined)", "Estrogen receptor (Homo sapiens)", "<", 6.00]
]}

Where do the numbers come from? From ChEMBL document CHEMBL1149417.
